- Tested on: Amaranthus retroflexus (AMARE)
- measurement protocol: Pre-emergence herbicidal action against AMARE
- Format: in vivo
- conditions: 80 g/ha, visual scoring after about 3 weeks vs untreated controls
Please respond with reported Pre-emergence action against AMARE in % for every item in the list.
Give just the numeric value; % need not be written.

Asked: API: value(readout= Pre-emergence action against AMARE in %, system= Amaranthus retroflexus (AMARE), query= COC(=O)[C@@H](C)Oc1nn(-c2ncccc2F)c(-c2ccc(F)nc2)c1C(F)(F)F )
Given back: 100

Asked: API: value(readout= Pre-emergence action against AMARE in %, system= Amaranthus retroflexus (AMARE), query= COCCOC(=O)COc1nn(-c2ccccn2)c(-c2ccc(F)nc2)c1Br )
Given back: 90

Asked: API: value(readout= Pre-emergence action against AMARE in %, system= Amaranthus retroflexus (AMARE), query= COCCOCCOC(=O)COc1nn(-c2ncccc2F)c(-c2ccc(F)nc2)c1Br )
Given back: 100

Asked: API: value(readout= Pre-emergence action against AMARE in %, system= Amaranthus retroflexus (AMARE), query= O=C(O)COc1nn(-c2ncccc2F)c(-c2ccc(F)nc2)c1Br [Example I-08] )
Given back: 100

Asked: API: value(readout= Pre-emergence action against AMARE in %, system= Amaranthus retroflexus (AMARE), query= O=C(O)COc1nn(-c2ncccc2F)c(-c2ccc(F)nc2)c1Br [Example I-17] )
Given back: 100

Asked: API: value(readout= Pre-emergence action against AMARE in %, system= Amaranthus retroflexus (AMARE), query= O=C(O)COc1nn(-c2nc(F)ccc2F)c(-c2ccc(F)nc2)c1Br )
Given back: 90

Asked: API: value(readout= Pre-emergence action against AMARE in %, system= Amaranthus retroflexus (AMARE), query= O=C(O)COc1nn(-c2nc(F)ccc2F)c(-c2ccc(F)nc2)c1Cl )
Given back: 90

Asked: API: value(readout= Pre-emergence action against AMARE in %, system= Amaranthus retroflexus (AMARE), query= O=C(O)COc1nn(-c2ccccn2)c(-c2cncnc2)c1Br )
Given back: 90

Asked: API: value(readout= Pre-emergence action against AMARE in %, system= Amaranthus retroflexus (AMARE), query= COC(=O)CCOC(=O)COc1nn(-c2ccccn2)c(-c2ccc(F)nc2)c1Cl )
Given back: 80

Asked: API: value(readout= Pre-emergence action against AMARE in %, system= Amaranthus retroflexus (AMARE), query= CCOC(=O)[C@@H](C)Oc1nn(-c2ncccc2F)c(-c2ccc(F)nc2)c1Br )
Given back: 90

* * *

Please respond with reported Post-emergence action against ALOMY in % for every item in the list.
- Tested on: Alopecurus myosuroides (ALOMY)
- measurement protocol: Post-emergence herbicidal action against ALOMY
- Format: in vivo
- conditions: 80 g/ha, visual rating about 3 weeks after treatment vs untreated controls (100% = plants have died, 0% = like control plants)

Asked: Given the compound CCCOC(=O)COc1nn(-c2ncccc2F)c(-c2ccc(F)nc2)c1C1CC1 [Example I-344] , what is its reported Post-emergence action against ALOMY in %?
Given back: 90%

Asked: Given the compound CCOC(=O)[C@@H](C)Oc1nn(-c2ccccn2)c(-c2cncc(F)c2)c1Cl [Example I-184] , what is its reported Post-emergence action against ALOMY in %?
Given back: 80%

Asked: Given the compound COC(=O)[C@H](C)NC(=O)COc1nn(-c2ccccn2)c(-c2ccc(F)nc2)c1Cl [Example I-87] , what is its reported Post-emergence action against ALOMY in %?
Given back: 80%

Asked: Given the compound COC(=O)[C@@H](C)Oc1nn(-c2ncccc2F)c(-c2cncc(F)c2)c1Br [Example I-15] , what is its reported Post-emergence action against ALOMY in %?
Given back: 90%

Asked: Given the compound CCOC(=O)COc1nn(-c2ncccc2C)c(-c2ccc(F)nc2)c1Cl [Example I-316] , what is its reported Post-emergence action against ALOMY in %?
Given back: 100%

Asked: Given the compound COC(=O)COc1nn(-c2ncccc2F)c(-c2ccc(F)nc2)c1Br [Example I-07] , what is its reported Post-emergence action against ALOMY in %?
Given back: 90%

Asked: Given the compound COC(=O)[C@@H](C)Oc1nn(-c2ccccn2)c(-c2ccc(F)nc2)c1Br [Example I-252] , what is its reported Post-emergence action against ALOMY in %?
Given back: 80%

Asked: Given the compound COC(=O)CNC(=O)COc1nn(-c2ccccn2)c(-c2ccc(F)nc2)c1Cl [Example I-64] , what is its reported Post-emergence action against ALOMY in %?
Given back: 100%

* * *

- Tested on: Avena fatua (AVEFA)
- measurement protocol: Post-emergence herbicidal action against AVEFA
- Type: in vivo
- conditions: 320 g/ha, visual rating about 3 weeks after treatment
- Experimental: Seeds of monocotyledonous and dicotyledonous weeds and crop plants are placed in sandy loam in plastic or organic planting pots, covered with soil and cultivated in a greenhouse under controlled growth conditions. 2 to 3 weeks after sowing, the test plants are treated at the one-leaf stage. […]
observed property: Post-emergence action against AVEFA in % (%)
Give just the numeric value; % need not be written.

Asked: API: value(readout= Post-emergence action against AVEFA in %, system= Avena fatua (AVEFA), query= COC(=O)C(C)NC(=O)[C@@H](C)Oc1nn(-c2ccccn2)c(-c2ccc(F)nc2)c1Cl (stereo partly shown) )
Given back: 90

Asked: API: value(readout= Post-emergence action against AVEFA in %, system= Avena fatua (AVEFA), query= CCOC(=O)COc1nn(-c2ccnc(F)c2)c(-c2ccc(F)nc2)c1Br )
Given back: 80

Asked: API: value(readout= Post-emergence action against AVEFA in %, system= Avena fatua (AVEFA), query= C[C@@H](Oc1nn(-c2nc(F)ccc2F)c(-c2cncc(F)c2)c1Br)C(=O)O )
Given back: 80

Asked: API: value(readout= Post-emergence action against AVEFA in %, system= Avena fatua (AVEFA), query= COC(=O)[C@@H](C)Oc1nn(-c2ncccc2F)c(-c2cccnc2)c1Br )
Given back: 90

* * *

Please respond with reported Pre-emergence action against TRZAS in % for every item in the list.
- System: Triticum aestivum (TRZAS)
- Type: in vivo
- conditions: pre-emergence, 80 g/ha, crop plant compatibility, in comparison to untreated controls
Give just the numeric value; % need not be written.

Asked: API: value(readout= Pre-emergence action against TRZAS in %, system= Triticum aestivum (TRZAS), query= CCOC(=O)COc1nn(-c2ccccn2)c(-c2ccc(Cl)nc2)c1Br )
Given back: 20

Asked: API: value(readout= Pre-emergence action against TRZAS in %, system= Triticum aestivum (TRZAS), query= COC(=O)CN(C)C(=O)COc1nn(-c2ccnc(Cl)c2)c(-c2ccc(F)nc2)c1Br )
Given back: 20

Asked: API: value(readout= Pre-emergence action against TRZAS in %, system= Triticum aestivum (TRZAS), query= CC(=O)CNC(=O)COc1nn(-c2ccnc(F)c2)c(-c2ccc(F)nc2)c1Br )
Given back: 0

Asked: API: value(readout= Pre-emergence action against TRZAS in %, system= Triticum aestivum (TRZAS), query= COC(=O)CCOC(=O)COc1nn(-c2ccnc(F)c2)c(-c2ccc(F)nc2)c1Br )
Given back: 20

Asked: API: value(readout= Pre-emergence action against TRZAS in %, system= Triticum aestivum (TRZAS), query= O=C(O)COc1nn(-c2ccnc(F)c2)c(-c2ccc(F)nc2)c1Br )
Given back: 0

Asked: API: value(readout= Pre-emergence action against TRZAS in %, system= Triticum aestivum (TRZAS), query= COC(=O)COc1nn(-c2ncccc2C(F)(F)F)c(-c2cncc(F)c2)c1Br )
Given back: 0

Asked: API: value(readout= Pre-emergence action against TRZAS in %, system= Triticum aestivum (TRZAS), query= O=C(O)COc1nn(-c2ncccc2Cl)c(-c2ccc(F)nc2)c1Br )
Given back: 0

Asked: API: value(readout= Pre-emergence action against TRZAS in %, system= Triticum aestivum (TRZAS), query= CCOC(=O)COc1nn(-c2ccnc(F)c2)c(-c2ccc(F)nc2)c1Br )
Given back: 0

Asked: API: value(readout= Pre-emergence action against TRZAS in %, system= Triticum aestivum (TRZAS), query= C[C@@H](Oc1nn(-c2ncccc2F)c(-c2ccc(F)nc2)c1Br)C(=O)O )
Given back: 10

* * *

- Test system: Oryza sativa (ORYSA)
- Assay type: in vivo
- conditions: crop plant compatibility, 80 g/ha, effect in comparison to untreated controls
observed property: Post-emergence action against ORYSA in % (%)
Give just the numeric value; % need not be written.

Asked: Given the molecule COC(=O)CCOC(=O)COc1nn(-c2cccc(C)n2)c(-c2ccc(F)nc2)c1Cl [Example I-276] , what is its reported Post-emergence action against ORYSA in %?
Given back: 10

Asked: Given the molecule O=C(O)COc1nn(-c2ccccn2)c(-c2ccc(F)nc2)c1I [Example I-103] , what is its reported Post-emergence action against ORYSA in %?
Given back: 0

Asked: Given the molecule CCOC(=O)C1CCN(C(=O)COc2nn(-c3ccccn3)c(-c3ccc(F)nc3)c2Br)CC1 [Example I-112] , what is its reported Post-emergence action against ORYSA in %?
Given back: 0

Asked: Given the molecule CCOC(=O)CSc1nn(-c2ccccn2)c(-c2cncc(F)c2)c1Br [Example I-125] , what is its reported Post-emergence action against ORYSA in %?
Given back: 0

Asked: Given the molecule CCOC(=O)[C@@H](C)Oc1nn(-c2nc(F)ccc2F)c(-c2cncc(F)c2)c1Cl [Example I-208] , what is its reported Post-emergence action against ORYSA in %?
Given back: 0

Asked: Given the molecule CCOC(=O)COc1nn(-c2ncccc2OC)c(-c2ccc(F)nc2)c1I [Example I-386] , what is its reported Post-emergence action against ORYSA in %?
Given back: 0

Asked: Given the molecule COC(=O)[C@H](C)COC(=O)COc1nn(-c2ccccn2)c(-c2cncc(F)c2)c1Cl [Example I-74] , what is its reported Post-emergence action against ORYSA in %?
Given back: 10

Asked: Given the molecule O=C(O)COc1nn(-c2ccccn2)c(-c2ccc(Cl)nc2)c1Br [Example I-235] , what is its reported Post-emergence action against ORYSA in %?
Given back: 0

Asked: Given the molecule CCOC(=O)CN(C)S(=O)(=O)NC(=O)COc1nn(-c2ncccc2F)c(-c2ccc(F)nc2)c1Br [Example I-54] , what is its reported Post-emergence action against ORYSA in %?
Given back: 0

Asked: Given the molecule COC(=O)C1CCN(C(=O)COc2nn(-c3ccccn3)c(-c3ccc(F)nc3)c2Br)C1 (centres unmarked) [Example I-109] , what is its reported Post-emergence action against ORYSA in %?
Given back: 0

Asked: Given the molecule COC(=O)[C@@H](C)Oc1nn(-c2ncccc2Cl)c(-c2ccc(F)nc2)c1Br [Example I-24] , what is its reported Post-emergence action against ORYSA in %?
Given back: 10

Asked: Given the molecule O=C(O)COc1nn(-c2nc(F)ccc2F)c(-c2ccc(F)nc2)c1C1CC1 [Example I-302] , what is its reported Post-emergence action against ORYSA in %?
Given back: 20

Asked: Given the molecule CCOC(=O)COc1nn(-c2ncccc2F)c(-c2ccc(F)nc2)c1I [Example I-55] , what is its reported Post-emergence action against ORYSA in %?
Given back: 0

Asked: Given the molecule O=C(COc1nn(-c2ccccn2)c(-c2ccc(F)nc2)c1Cl)NS(=O)(=O)CC(F)(F)F [Example I-119] , what is its reported Post-emergence action against ORYSA in %?
Given back: 10

Asked: Given the molecule CCOC(=O)COc1nn(-c2ncccc2C(F)(F)F)c(-c2cncc(F)c2)c1I [Example I-225] , what is its reported Post-emergence action against ORYSA in %?
Given back: 10

Asked: Given the molecule COCCOC(=O)COc1nn(-c2ncccc2F)c(-c2ccc(F)nc2)c1C1CC1 [Example I-314] , what is its reported Post-emergence action against ORYSA in %?
Given back: 20

Asked: Given the molecule CCOC(=O)C(C)Oc1nn(-c2ccccn2)c(-c2ccc(F)nc2)c1Br (racemic) [Example I-58] , what is its reported Post-emergence action against ORYSA in %?
Given back: 0
